Assignment: determine reported remaining activity at 100 µM for the given molecules.
- TESTED ON: α-galactosidase (green coffee beans) (Coffea arabica, UniProt Q42656)
- Sequence (Q42656 16-378): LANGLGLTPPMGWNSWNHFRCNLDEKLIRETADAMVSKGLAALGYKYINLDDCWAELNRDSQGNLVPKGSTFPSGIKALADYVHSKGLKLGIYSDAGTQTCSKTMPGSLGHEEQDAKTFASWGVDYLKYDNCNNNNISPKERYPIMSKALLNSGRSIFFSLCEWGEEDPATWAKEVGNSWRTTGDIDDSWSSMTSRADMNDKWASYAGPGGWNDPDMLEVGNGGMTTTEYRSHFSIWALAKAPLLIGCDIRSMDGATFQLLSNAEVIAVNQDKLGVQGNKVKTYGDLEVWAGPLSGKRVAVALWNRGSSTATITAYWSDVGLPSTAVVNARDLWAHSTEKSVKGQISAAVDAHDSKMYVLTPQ
- ASSAY COMMENT: biochemical
- MEASUREMENT PARAMETERS: read-out: α-Gal % Ra (% remaining activity at 100 µM)
Return type: number; implicit unit %.

May I ask what remaining activity at 100 µM has been recorded for CCCCCCCCCN1[C@@H](CO)C(O)[C@@H]1CO [Compound 27] ? 57

What value of remaining activity at 100 µM has been recorded for this entry: CCCCN1C/C=C\[C@@H](O)[C@H](O)[C@@H](O)C1 [Compound 3] 100

// remaining activity at 100 µM lookup, key: CCCCN1[C@@H](CO)C(O)[C@@H]1CO [Compound 26] 98

Quick one: remaining activity at 100 µM for CCCCN1CCC[C@@H](O)[C@H](O)[C@@H](O)C1 [Compound 1, (3S,4S,5R)-1-Butylazocane-3,4,5-triol] ? 100

// remaining activity at 100 µM lookup, key: CCCCN1[C@H](CO)C(O)[C@H]1CO [Compound 22] 100
